Origin of the recorded values: ChEMBL document CHEMBL1201862

System: UACC-257
Test: NCI tumour cell line growth inhibition, 48 h
Activity calls are given as the source filed them. Rule as the data show it: active = GI50 up to about 1.1 µM and inactive = higher.
Give GI50 for every item shown.

**Query** Give me measured GI50, please, for this molecule: O=[N+]([O-])c1ccc(NN=C2CN3CCN(C2)c2ccccc23)c([N+](=O)[O-])c1
**Result** > 100 µM (inactive)

**Query** Answer with the recorded GI50 for the molecule listed here: Oc1cc(-c2ccc3ccccc3c2)nc2ncc(Cl)cc12
**Result** 9.06 µM (inactive)

**Query** Hello, please tell me recorded GI50 for this one: C=C1C(=O)O[C@@H]2[C@H]1CCC(C)=C1C=CC(=O)[C@]12C
**Result** 12.4 µM (inactive)

**Query** Recall and state the measured GI50 for Cc1cccc(NC(=O)CC#N)c1Cl .
**Result** > 100 µM (inactive)

**Query** Report GI50, nothing else, for this molecule: NS(=O)(=O)c1ccc(N2C(=O)C(=O)N(c3ccccc3)C2=S)cc1
**Result** 37.8 µM (inactive)

**Query** Provide only the value of recorded GI50 for CC(C)=CC1C(C(=O)OCc2cc3c(cc2Cl)OCO3)C1(C)C (stereo unspecified)
**Result** 12.6 µM (inactive)

**Query** Note GI50 for the molecule shown: O=C1c2ccc3c4ccccc4n(-c4ccccc4)c3c2C(=O)N1c1ccc(Cl)cc1
**Result** > 100 µM (inactive)

**Query** Given the molecule Cc1cc(NS(=O)(=O)c2ccc(NC(=O)c3cccc4c(NNc5ccc(S(=O)(=O)N=C(N)N)cc5)c5ccccc5nc34)cc2)no1 , write its reported GI50.
**Result** > 100 µM (inactive)

**Query** Supply reported GI50 belonging to this molecule: C=C1CC2(C)CCC(OC(=O)C3(C)OC3C)C(C)(OC(C)=O)C2CC1=C(C)C (stereo unspecified)
**Result** > 100 µM (inactive)

**Query** Please supply the value of reported GI50 for the item Cc1c(C)c2ccc(OCC(O)COC(C)C)c(C)c2oc1=O (stereo unspecified)
**Result** 19.8 µM (inactive)

**Query** Report GI50, nothing else, for this molecule: Cc1ccc(NC(=O)C2C3C=CC(O3)C2C(=O)O)cc1 (stereo unspecified)
**Result** 87.1 µM (inactive)

**Query** Annotate the molecule COC(=O)[C@H]1CO[C@@H](C(C)(C)C)N1C(=O)N1C=CC(=O)C[C@@H]1C with its measured GI50.
**Result** > 100 µM (inactive)

**Query** Indicate the recorded GI50 value for this molecule: Cc1ccc(Nc2nc3ccccc3c(=O)n2N)cc1
**Result** > 100 µM (inactive)

**Query** Identify measured GI50 corresponding to CC(C)N(C(=O)c1ccc(NCc2cc(O)ccc2O)cc1)C(C)C
**Result** 17.4 µM (inactive)

**Query** Specify measured GI50 for CC1(C)COC(c2cccc(C3=NC(C)(C)CO3)c2Br)=N1 .
**Result** > 100 µM (inactive)

**Query** Tell us which GI50 value is on record for CN(C)C(=S)Oc1ccc2ccc(=O)oc2c1
**Result** > 100 µM (inactive)

**Query** Note GI50 for the molecule shown: O=C(NN1C(=O)c2ccccc2C1=O)c1ccccc1Nc1ccccc1C(=O)NN1C(=O)c2ccccc2C1=O
**Result** > 100 µM (inactive)

**Query** Provide only the value of recorded GI50 for COc1cc(C2SC(C)C(=O)N2c2ccc(-c3csc(NS(=O)(=O)c4ccc(Cl)c(OC)c4)n3)cc2)ccc1O (stereo unspecified)
**Result** 85.7 µM (inactive)

**Query** Identify measured GI50 corresponding to CN(C)Cc1cc(/N=N/c2cccc(Cl)c2)ccc1O
**Result** 14.5 µM (inactive)

**Query** Please supply the value of reported GI50 for the item CSC1=C(C#N)C(=S)N=C(N)C1C(=O)Nc1ccc(C)cc1 (stereo unspecified)
**Result** > 100 µM (inactive)

**Query** Entry N#Cc1c(N2CCCC2)ncn(Cc2ccccc2)c1=S needs its GI50 filled in; supply it.
**Result** > 100 µM (inactive)
